Test system: AABA1060 (clinical isolate of Acinetobacter baumannii)
Assay: MIC broth microdilution, AABA1060
Type: cell-based
Conditions: Acinetobacter baumannii, read-out: MIC AABA1060
Protocol: Bacterial isolates were cultivated from −70° C. frozen stocks by overnight passages at 35° C. in ambient air on Mueller-Hinton agar (Beckton Dickinson, Franklin Lakes, N.J.). […] Minimum Inhibitory Concentrations (MICs) were determined by the broth microdilution method in accordance with the Clinical and Laboratory Standards Institute (CLSI) guidelines. […]
endpointLabel: MIC

>  <structureSmilesString>
C[C@@H](N)[C@H](NC(=O)c1ccc(C#C/C=C/C2CC2)cc1)C(=O)NO

>  <valueReported>
< 2 µg/mL

$$$$
>  <structureSmilesString>
CC(C)(O)[C@H](NC(=O)c1ccc(/C=C/C#Cc2ccc(CNC3CC3)cc2)cc1)C(=O)NO

>  <valueReported>
< 2 µg/mL

$$$$
>  <structureSmilesString>
CC(C)(N)[C@H](NC(=O)c1ccc(C#Cc2ccc(CN3CCS(=O)(=O)CC3)cc2)cc1)C(=O)NO

>  <valueReported>
< 2 µg/mL

$$$$
>  <structureSmilesString>
CC(C)(O)[C@H](NC(=O)c1ccc(C#CC#CC2CC2)cc1)C(=O)NO

>  <valueReported>
< 2 µg/mL

$$$$
>  <structureSmilesString>
C[C@@H](O)[C@H](NC(=O)c1ccc(C#CC#Cc2ccc(F)cc2)cc1)C(=O)NO

>  <valueReported>
16 to 64 µg/mL

$$$$
>  <structureSmilesString>
C[C@@H](N)[C@H](NC(=O)c1ccc(C#CC#Cc2ccc(CNCCF)cc2)cc1)C(=O)NO

>  <valueReported>
2 to 16 µg/mL

$$$$
>  <structureSmilesString>
CCCC#CC#Cc1ccc(C(=O)N[C@H](C(=O)NO)C(C)(C)N)cc1

>  <valueReported>
< 2 µg/mL

$$$$
>  <structureSmilesString>
CC(C)(O)[C@H](NC(=O)c1ccc(C#C/C=C/c2ccccc2)cc1)C(=O)NO

>  <valueReported>
< 2 µg/mL

$$$$

Source listed as patent US9617256B2.
